System: MDCK
ASSAY_NAME: Cytotoxicity against MDCK cells after 72 hrs by MTT assay
Assay type: cell-based
CONDITIONS_USED: Canis lupus familiaris
Assignment: determine reported pIC50 for the given compounds.
FYI, pIC50 means -log10 of a concentration in mol per litre.

Data request: // fetch MDCK pIC50 for COc1ccc(/C=C/c2cc(C)n[nH]2)cc1OC
Data returned: 4.27

Data request: // repeat for Cc1cc(/C=C/c2ccc(O)cc2)[nH]n1 and report
Data returned: 4.10

Data request: // repeat for COc1ccc(/C=C/c2cc(C)no2)cc1 and report
Data returned: 4.15

Data request: // repeat for COc1ccc(/C=C/C(=O)CC(C)=O)cc1OC and report
Data returned: 5.00

Data request: // repeat for CC(=O)CC(=O)/C=C/c1ccc(O)cc1 and report
Data returned: 4.51

Data request: // repeat for COc1cc(/C=C/C(=O)CC(C)=O)ccc1O and report
Data returned: 4.88

Data request: // repeat for COc1cc(/C=C/c2cc(C)no2)ccc1O and report
Data returned: 4.53
